- Tested on: SK-MEL-5 melanoma
- METHOD_NOTES: NCI tumour cell line growth inhibition, 48 h
MEASUREMENT_KIND: TGI

Solved entries (count: 2):
C[C@]12CC[C@@H]3c4ccc(OC(=O)N(CCCl)CCCl)cc4CC[C@H]3[C@@H]1CC[C@@H]2OP(=O)(O)O = > 100 µM
Nc1ccc(C2SCC(=O)N2NS(=O)(=O)c2cccc(C(=O)O)c2)cc1 (stereo unspecified) = > 100 µM

Given the compound CCOC(=O)CC1Nc2ccccc2C12CCc1c([nH]c3ccccc13)C2C(=O)OCC (stereo unspecified) , write its reported TGI.
> 100 µM

Given the compound `C/C(CCN(C)C)=N\OC(=O)c1ccccc1` , write its reported TGI.
> 100 µM

Given the compound CC(=O)N1N=C(c2ccc(C)cc2)CC1c1cn(-c2ccccc2)nc1-c1cccc(Nc2ccnc3cc(Cl)ccc23)c1 (stereo unspecified) , write its reported TGI.
> 100 µM

Given the compound `CN(C)NC1=NS(=O)(=O)c2cc3c(=O)n(C)[nH]c3cc2S1` , write its reported TGI.
> 10 µM

Given the compound `O=C(Nc1ccc(F)cc1)c1cc2c(cc1Cl)Sc1nccn1S2(=O)=O` , write its reported TGI.
> 100 µM

Given the compound `CN(Cc1cnc2nc(N)nc(N)c2n1)c1ccc(C(=O)NCCCC(=O)O)cc1` , write its reported TGI.
> 100 µM

Given the compound Nc1nc(N)c2c(n1)CCC(S(=O)(=O)c1ccc3ccccc3c1)C2 (stereo unspecified) , write its reported TGI.
19.2 µM

Given the compound `COc1ccc(CNc2nc3cc(C(F)(F)F)ccc3nc2C(=O)O)cc1` , write its reported TGI.
32.1 µM

Given the compound `Cc1c(C(=O)c2ccccc2)[n+](=O)c2cc(F)c(F)cc2n1[O-]` , write its reported TGI.
4.24 µM

Given the compound O=C(CC(=O)N1N=C(N(c2ccccc2)c2ccccc2)CC1c1ccccc1)Nc1cccc(Cl)c1 (stereo unspecified) , write its reported TGI.
> 100 µM

# credit: PubChem BioAssay (NCI)
